- Test system: Staphylococcus aureus
- assay text: Antibiofilm activity against Staphylococcus aureus MLS-16 MTCC 2940 after 24 hrs by crystal violet assay
- Format: functional, organism-based
- protocol conditions: MLS-16 MTCC 2940, 24 h
outcome measure: IC50 (µg/mL)
Numbers only, in µg/mL.

• O=C(NCc1cn(Cc2ccc(F)c(Cl)c2)nn1)c1ccc([N+](=O)[O-])o1 = 1.1
• COc1cc(Cn2cc(CNC(=O)c3ccc([N+](=O)[O-])o3)nn2)ccc1F = 2.7
• COc1ccc(Cn2cc(CNC(=O)c3ccc([N+](=O)[O-])o3)nn2)cc1[N+](=O)[O-] = 4.1
• COc1ccc(Cn2cc(CNC(=O)c3ccc([N+](=O)[O-])o3)nn2)cc1F = 3.4
• COc1ccc(Cn2cc(CNC(=O)c3ccc([N+](=O)[O-])o3)nn2)cc1O = 5.1

Answer for every listed entry: what is its IC50? The entries follow.
1. CC[C@H]1OC(=O)[C@H](C)[C@@H](O[C@H]2C[C@@](C)(OC)[C@@H](O)[C@H](C)O2)[C@H](C)[C@@H](O[C@@H]2O[C@H](C)C[C@H](N(C)C)[C@H]2O)[C@](C)(O)C[C@@H](C)C(=O)[C@H](C)[C@@H](O)[C@]1(C)O
2. O=C(NCc1cn(Cc2ccc(C(F)(F)F)cc2)nn1)c1ccc([N+](=O)[O-])o1

A.
1. 0.21
2. 8.4

Q. Can you share its IC50? I mean this molecule: `O=C(NCc1cn(Cc2cccc([N+](=O)[O-])c2)nn1)c1ccc([N+](=O)[O-])o1`
A. 0.8

---

- Tested on: Micrococcus luteus
- assay text: Antimicrobial activity against Micrococcus luteus MTCC 2470 after 24 hrs by well diffusion method
- Format: functional
- protocol conditions: MTCC 2470, 24 h
Could you please mark met for values of MIC below 2 µg/mL and not met for values at or above it?

• COc1ccc(Cn2cc(CNC(=O)c3ccc([N+](=O)[O-])o3)nn2)cc1F = not met
• COc1ccc(Cn2cc(CNC(=O)c3ccc([N+](=O)[O-])o3)nn2)cc1[N+](=O)[O-] = not met
• O=C(NCc1cn(Cc2ccc(F)c(Cl)c2)nn1)c1ccc([N+](=O)[O-])o1 = not met
• COc1cc(Cn2cc(CNC(=O)c3ccc([N+](=O)[O-])o3)nn2)ccc1O = met
• COc1cc(Cn2cc(CNC(=O)c3ccc([N+](=O)[O-])o3)nn2)ccc1F = met

Q. Would you kindly verify if MIC of `O=C(NCc1cn(Cc2ccc([N+](=O)[O-])cc2)nn1)c1ccc([N+](=O)[O-])o1` is strictly less than 2 µg/mL?
A. not met

Q. Would you kindly verify if MIC of `COc1ccc(Cn2cc(CNC(=O)c3ccc([N+](=O)[O-])o3)nn2)cc1O` is strictly less than 2 µg/mL?
A. not met

Q. Would you kindly verify if MIC of `COc1ccc(Cn2cc(CNC(=O)c3ccc([N+](=O)[O-])o3)nn2)cc1` is strictly less than 2 µg/mL?
A. not met

Q. Would you kindly verify if MIC of `O=C(O)c1cn(C2CC2)c2cc(N3CCNCC3)c(F)cc2c1=O` is strictly less than 2 µg/mL?
A. met

Q. Would you kindly verify if MIC of `O=C(NCc1cn(Cc2ccc(C(F)(F)F)cc2)nn1)c1ccc([N+](=O)[O-])o1` is strictly less than 2 µg/mL?
A. not met

Q. Would you kindly verify if MIC of `O=C(NCc1cn(Cc2cccc([N+](=O)[O-])c2)nn1)c1ccc([N+](=O)[O-])o1` is strictly less than 2 µg/mL?
A. not met

---

- Test system: Staphylococcus aureus
- assay text: Antibiofilm activity against Staphylococcus aureus MLS-16 MTCC 2940 after 24 hrs by crystal violet assay
- Format: functional, organism-based
- protocol conditions: MLS-16 MTCC 2940, 24 h
For each of the compounds below, state its IC50.
Answers are plain numbers, in µg/mL.

* COc1cc(Cn2cc(CNC(=O)c3ccc([N+](=O)[O-])o3)nn2)ccc1O | 1.7
* O=C(NCc1cn(Cc2ccc([N+](=O)[O-])cc2)nn1)c1ccc([N+](=O)[O-])o1 | 3.8

Q. Can you share its IC50? I mean this compound: `COc1ccc(Cn2cc(CNC(=O)c3ccc([N+](=O)[O-])o3)nn2)cc1`
A. 6.1

---

- System: Vero
- assay text: Cytotoxicity against african green monkey Vero cells
- Type: cell-based
- protocol conditions: Chlorocebus sabaeus
outcome measure: pIC50
Answers are plain numbers, as −log10 of the molar value.

Here is how some compounds turned out for pIC50.
* O=C(NCc1cn(Cc2ccc([N+](=O)[O-])cc2)nn1)c1ccc([N+](=O)[O-])o1 | 3.54
* COc1ccc(Cn2cc(CNC(=O)c3ccc([N+](=O)[O-])o3)nn2)cc1O | 3.76
* O=C(NCc1cn(Cc2ccc(C(F)(F)F)cc2)nn1)c1ccc([N+](=O)[O-])o1 | 3.54
* COc1cc(Cn2cc(CNC(=O)c3ccc([N+](=O)[O-])o3)nn2)ccc1F | 3.65
* O=C(NCc1cn(Cc2ccc(F)c(Cl)c2)nn1)c1ccc([N+](=O)[O-])o1 | 3.46
* O=C(NCc1cn(Cc2cccc([N+](=O)[O-])c2)nn1)c1ccc([N+](=O)[O-])o1 | 3.49
* COc1ccc(Cn2cc(CNC(=O)c3ccc([N+](=O)[O-])o3)nn2)cc1 | 3.56

Lab note: next compound to report on.
Q. Can you share its pIC50? I mean this compound: `COc1ccc(Cn2cc(CNC(=O)c3ccc([N+](=O)[O-])o3)nn2)cc1[N+](=O)[O-]`
A. 3.75

---

For each of the compounds below, state its MIC.
- Test system: Staphylococcus aureus
- assay text: Antimicrobial activity against Staphylococcus aureus MLS-16 MTCC 2940 after 24 hrs by well diffusion method
- Assay type: functional
- protocol conditions: MLS-16 MTCC 2940, 24 h

• COc1ccc(Cn2cc(CNC(=O)c3ccc([N+](=O)[O-])o3)nn2)cc1O = 9.37 µg/mL
• O=C(NCc1cn(Cc2cccc([N+](=O)[O-])c2)nn1)c1ccc([N+](=O)[O-])o1 = 1.17 µg/mL
• O=C(NCc1cn(Cc2ccc([N+](=O)[O-])cc2)nn1)c1ccc([N+](=O)[O-])o1 = 4.68 µg/mL
• COc1cc(Cn2cc(CNC(=O)c3ccc([N+](=O)[O-])o3)nn2)ccc1O = 2.34 µg/mL

Q. Can you share its MIC? I mean this compound: `COc1ccc(Cn2cc(CNC(=O)c3ccc([N+](=O)[O-])o3)nn2)cc1`
A. 9.37 µg/mL

// provenance: ChEMBL document CHEMBL3091424
